Numbers sourced from paper PMC10986598.

Assay: In vivo PK studies in CD-1 mice
Conditions: both sexes, CD1, mouse; Plasma; single 30 mg/kg IP dose of pro-hpAP; analyte = labelled substance; read-out: AUC0-t

compound	AUC(0-t)
C#CCCOP(=O)(O)C(=C)NC(=O)C(CC(C)C)NC(=O)CN (stereo not shown)	3.2 µM·h

* * *

Assay: In vivo PK studies in CD-1 mice
Conditions: Kidney; single 100 mg/kg IP dose of BAP

molecule	measurement_unit	Cmax
CCCCOP(=O)(O)C(C)=O [BAP, butyl acetylphosphonate]	µM	298

* * *

Assay: In vivo PK studies in CD-1 mice
Conditions: both sexes, CD1, mouse, in vivo; plasma; pro-hpAP 30 mg/kg IP; analyte = labelled substance; read-out: AUC
Procedure: For pharmacokinetic analysis, both male (n = 2) and female (n = 2) CD1 mice were dosed with either BAP or pro-hpAP by intraperitoneal (IP) route or administration (100 mg/kg) and (30 mg/kg), respectively. Blood and tissue samples were collected at predetermined time points (0–6 h post-dose). […] To quantify BAP and pro-hpAP, methanol containing 0.5 µM losartan as an internal standard was added 5 µL/µL plasma or 5 µL/mg tissue in microcentrifuge tubes. […] Peaks were quantified with Xcalibur software.

molecule	AUC (µM·h)
C#CCCOP(=O)(O)C(C)=O [hpAP, homopropargyl acetylphosphonate]	38.8

* * *

Test: In vivo PK studies in CD-1 mice
Conditions: both sexes, CD1, mouse, in vivo, ip, 30 mg/kg, Bladder; single 30 mg/kg IP dose of pro-hpAP; analyte = labelled substance; read-out: AUC0-t
quantity_kind: AUC(0-t) (µM·h)

compound	quantity_kind	measurement_unit	measured
C#CCCOP(=O)(O)C(C)=O [hpAP, homopropargyl acetylphosphonate]	AUC(0-t)	µM·h	366

* * *

Test: In vivo PK studies in CD-1 mice
Conditions: both sexes, CD1, mouse; Kidney; single 30 mg/kg IP dose of pro-hpAP; analyte = labelled substance

compound	measurement_unit	Cmax
C#CCCOP(=O)(O)C(=C)NC(=O)C(CC(C)C)NC(=O)CN (stereo not shown)	nM	715

* * *

Assay: In vivo PK studies in CD-1 mice
Conditions: both sexes, CD1, mouse; Brain; single 30 mg/kg IP dose of pro-hpAP; analyte = labelled substance; read-out: AUC0-t

compound	measurement_unit	AUC(0-t)
C#CCCOP(=O)(O)C(=C)NC(=O)C(CC(C)C)NC(=O)CN (stereo not shown)	µM·h	0.115

* * *

Assay: In vivo PK studies in CD-1 mice
Conditions: both sexes, CD1, mouse, in vivo, ip, 30 mg/kg, Plasma; single 30 mg/kg IP dose of pro-hpAP; analyte = labelled substance; read-out: AUC0-t
Description: For pharmacokinetic analysis, both male (n = 2) and female (n = 2) CD1 mice were dosed with either BAP or pro-hpAP by intraperitoneal (IP) route or administration (100 mg/kg) and (30 mg/kg), respectively. Blood and tissue samples were collected at predetermined time points (0–6 h post-dose). […] To quantify BAP and pro-hpAP, methanol containing 0.5 µM losartan as an internal standard was added 5 µL/µL plasma or 5 µL/mg tissue in microcentrifuge tubes. […] Peaks were quantified with Xcalibur software.

molecule	measurement_unit	AUC(0-t)
C#CCCOP(=O)(O)C(C)=O [hpAP, homopropargyl acetylphosphonate]	µM·h	38.8

* * *

Assay: In vivo PK studies in CD-1 mice
Conditions: both sexes, CD1, mouse; Plasma; single 30 mg/kg IP dose of pro-hpAP; analyte = labelled substance; read-out: Tmax

compound	Tmax (min)
C#CCCOP(=O)(O)C(=C)NC(=O)C(CC(C)C)NC(=O)CN (stereo not shown)	4.8

* * *

Assay: In vivo PK studies in CD-1 mice
Settings: both sexes, CD1, mouse, in vivo, ip, 30 mg/kg, Kidney; single 30 mg/kg IP dose of pro-hpAP; analyte = labelled substance; read-out: AUC0-t

molecule	AUC(0-t), µM·h
C#CCCOP(=O)(O)C(C)=O [hpAP, homopropargyl acetylphosphonate]	16.3

* * *

Assay: In vivo PK studies in CD-1 mice
Conditions: both sexes, CD1, mouse; Brain; single 30 mg/kg IP dose of pro-hpAP; analyte = labelled substance; read-out: Tmax

molecule	Tmax
C#CCCOP(=O)(O)C(=C)NC(=O)C(CC(C)C)NC(=O)CN (stereo not shown)	4.8 min

* * *

Test: In vivo PK studies in CD-1 mice
Details: Brain; single 100 mg/kg IP dose of BAP
quantity_kind: Cmax (µM)

compound	measurement_unit	measured
CCCCOP(=O)(O)C(C)=O [BAP, butyl acetylphosphonate]	µM	16.2

* * *

Test: In vitro stability in mouse plasma
Format: in vitro ADME
Details: CD1, 37°C
Description: In vitro stability studies were conducted using our previously published methods naive CD1 mouse plasma or liver homogenate. […] The plasma stability of the compounds was determined by spiking (10 µM) in 1 mL of plasma and incubating in an orbital shaker at 37°C. […] Compound disappearance was monitored over time using liquid chromatography and tandem mass spectrometry (LC–MS/MS). […]

molecule	remaining at 1 h, 10 µM
C#CCCOP(=O)(O)C(=C)NC(=O)C(CC(C)C)NC(=O)CN (stereo not shown) [pro-hpAP]	95%

* * *

Test: In vivo PK studies in CD-1 mice
Conditions: both sexes, CD1, mouse, in vivo, ip, 30 mg/kg, Bladder; single 30 mg/kg IP dose of pro-hpAP; analyte = labelled substance
quantity_kind: Cmax (µM)

compound	measurement_unit	measured
C#CCCOP(=O)(O)C(C)=O [hpAP, homopropargyl acetylphosphonate]	µM	586

* * *

Assay: In vivo PK studies in CD-1 mice
Conditions: both sexes, CD1, mouse, in vivo; Kidney; single 30 mg/kg IP dose of pro-hpAP; analyte = labelled substance; read-out: Tmax

compound	Tmax / min
C#CCCOP(=O)(O)C(C)=O [hpAP, homopropargyl acetylphosphonate]	15

* * *

Assay: In vivo PK studies in CD-1 mice
Conditions: both sexes, CD1, mouse, in vivo, ip, 30 mg/kg, Brain; single 30 mg/kg IP dose of pro-hpAP; analyte = labelled substance; read-out: AUC0-t
Procedure: For pharmacokinetic analysis, both male (n = 2) and female (n = 2) CD1 mice were dosed with either BAP or pro-hpAP by intraperitoneal (IP) route or administration (100 mg/kg) and (30 mg/kg), respectively. Blood and tissue samples were collected at predetermined time points (0–6 h post-dose). […] To quantify BAP and pro-hpAP, methanol containing 0.5 µM losartan as an internal standard was added 5 µL/µL plasma or 5 µL/mg tissue in microcentrifuge tubes. […] Peaks were quantified with Xcalibur software.

compound	measurement_unit	AUC(0-t)
C#CCCOP(=O)(O)C(C)=O [hpAP, homopropargyl acetylphosphonate]	µM·h	1.87

* * *

Test: In vivo PK studies in CD-1 mice
Settings: both sexes, CD1, mouse; plasma; pro-hpAP 30 mg/kg IP; analyte = labelled substance; read-out: AUC
quantity_kind: AUC (µM·h)

compound	measurement_unit	measured
C#CCCOP(=O)(O)C(=C)NC(=O)C(CC(C)C)NC(=O)CN (stereo not shown)	µM·h	3.2

* * *

Assay: In vivo PK studies in CD-1 mice
Settings: Plasma; single 100 mg/kg IP dose of BAP
quantity_kind: Cmax (µM)

compound	measured
CCCCOP(=O)(O)C(C)=O [BAP, butyl acetylphosphonate]	650

* * *

Experiment: In vitro stability in mouse liver microsomes
Assay type: in vitro ADME

compound	measurement_unit	remaining at 1 h
C#CCCOP(=O)(O)C(=C)NC(=O)C(CC(C)C)NC(=O)CN (stereo not shown) [pro-hpAP]	%	90

* * *

Experiment: In vivo PK studies in CD-1 mice
Conditions: both sexes, CD1, mouse; Kidney; single 30 mg/kg IP dose of pro-hpAP; analyte = labelled substance; read-out: AUC0-t

compound	measurement_unit	AUC(0-t)
C#CCCOP(=O)(O)C(=C)NC(=O)C(CC(C)C)NC(=O)CN (stereo not shown) [pro-hpAP]	µM·h	0.516

* * *

Experiment: In vivo PK studies in CD-1 mice
Settings: both sexes, CD1, mouse; Brain; single 30 mg/kg IP dose of pro-hpAP; analyte = labelled substance
quantity_kind: Cmax (nM)

molecule	quantity_kind	measured
C#CCCOP(=O)(O)C(=C)NC(=O)C(CC(C)C)NC(=O)CN (stereo not shown)	Cmax	134

* * *

Assay: In vivo PK studies in CD-1 mice
Conditions: both sexes, CD1, mouse; Kidney; single 30 mg/kg IP dose of pro-hpAP; analyte = labelled substance; read-out: Tmax
Method: For pharmacokinetic analysis, both male (n = 2) and female (n = 2) CD1 mice were dosed with either BAP or pro-hpAP by intraperitoneal (IP) route or administration (100 mg/kg) and (30 mg/kg), respectively. Blood and tissue samples were collected at predetermined time points (0–6 h post-dose). […] To quantify BAP and pro-hpAP, methanol containing 0.5 µM losartan as an internal standard was added 5 µL/µL plasma or 5 µL/mg tissue in microcentrifuge tubes. […] Peaks were quantified with Xcalibur software.

compound	Tmax
C#CCCOP(=O)(O)C(=C)NC(=O)C(CC(C)C)NC(=O)CN (stereo not shown)	4.8 min
